# procedure summary: small-molecule microarray binders of probe aXIP, primary screen, biochemical, NeuroSMM set, 635/667 nm fluorescence (AID 1119);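 also: probe is the protein aXip251-270 applied at 1 µg/mL to compound-printed slides; binding of probe to printed compounds measured as 667 nm fluorescence plus signal to noise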
# run conditions: higher = more signal, called active from +8 up or from −8 down
composite Z-score reference
Form rule: numeric answer, no unit written next to it.

Observe how each entry below is paired with its result.
>>> df
                                   compound       readout_name  quantitative_result
0  CCOC(=O)C[C@H]1[C@H](OC(=O)c2ccc(-c3ccccc3)cc2)[C@@H](NC(=O)c2ccc3ccccc3c2)c2cc(OCCCO)ccc2N1C(=O)c1ccc2ccccc2n1  composite Z-score                0.152
1  CCOC(=O)C[C@H]1[C@H](OC(=O)c2ccccc2-c2ccccc2)[C@@H](NC(=O)CC(C)C)c2cc(OCCCO)ccc2N1C(=O)c1ccc2ccccc2n1  composite Z-score                0.675

Quick one: composite Z-score of "Cc1c(NC(=O)/C(C#N)=C/C=C/c2ccccc2[N+](=O)[O-])c(=O)n(-c2ccccc2)n1C" ?
-0.148

Quick one: composite Z-score of C[C@H]1C2=C3C(CC[C@H]4C(OCc5ccc(F)cc5C(F)(F)F)OC[C@](C)([C@@H]34)N(C(=O)OC(C)(C)C)C2)C(CO)C1CO (some centres undefined) ?
1.08
